Exercise: state measured Biochem EGFR % Inhibition (P.167) for each of the molecules provided.
target_or_system: EGFR (Homo sapiens, UniProt P00533)
Construct: endogenous in cells; host or cells: A431 cells (lysate, captured with SUMO1 anti-EGFR antibody)
Sequence (P00533 25-1210): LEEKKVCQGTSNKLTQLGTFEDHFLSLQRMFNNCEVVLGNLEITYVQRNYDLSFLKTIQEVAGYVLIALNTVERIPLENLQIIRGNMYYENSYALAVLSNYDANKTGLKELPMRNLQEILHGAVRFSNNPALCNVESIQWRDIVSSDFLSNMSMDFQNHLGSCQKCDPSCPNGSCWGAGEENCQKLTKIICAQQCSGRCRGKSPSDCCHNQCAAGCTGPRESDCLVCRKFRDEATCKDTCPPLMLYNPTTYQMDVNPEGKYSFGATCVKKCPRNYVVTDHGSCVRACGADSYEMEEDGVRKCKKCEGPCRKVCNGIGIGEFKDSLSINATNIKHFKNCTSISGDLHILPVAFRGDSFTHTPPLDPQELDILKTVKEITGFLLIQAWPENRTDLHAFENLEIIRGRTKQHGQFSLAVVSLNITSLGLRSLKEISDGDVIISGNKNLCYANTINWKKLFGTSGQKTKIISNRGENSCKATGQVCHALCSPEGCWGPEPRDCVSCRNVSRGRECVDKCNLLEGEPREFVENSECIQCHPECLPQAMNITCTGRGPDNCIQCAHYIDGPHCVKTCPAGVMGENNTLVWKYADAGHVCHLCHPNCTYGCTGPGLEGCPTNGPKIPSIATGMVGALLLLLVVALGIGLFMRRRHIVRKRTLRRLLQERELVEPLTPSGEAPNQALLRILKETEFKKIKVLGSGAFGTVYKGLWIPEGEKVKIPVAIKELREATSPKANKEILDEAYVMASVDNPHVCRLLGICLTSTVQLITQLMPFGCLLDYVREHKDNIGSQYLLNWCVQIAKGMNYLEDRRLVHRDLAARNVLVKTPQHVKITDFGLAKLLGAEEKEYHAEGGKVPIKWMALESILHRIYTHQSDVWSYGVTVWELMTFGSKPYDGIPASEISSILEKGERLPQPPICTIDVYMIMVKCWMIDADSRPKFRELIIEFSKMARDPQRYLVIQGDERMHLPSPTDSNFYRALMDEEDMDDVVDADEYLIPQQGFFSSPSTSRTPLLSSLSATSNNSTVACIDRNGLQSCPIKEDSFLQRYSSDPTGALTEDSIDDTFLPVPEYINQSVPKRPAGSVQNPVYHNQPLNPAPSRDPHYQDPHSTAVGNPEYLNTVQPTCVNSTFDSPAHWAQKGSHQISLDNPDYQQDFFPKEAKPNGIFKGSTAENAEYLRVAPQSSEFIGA
method_description: Biochemical EGFR Assay
Set-up: concentration or dose not given beside the values
One number for each entry, in %.

Study these solved cases before continuing.
* CNS(=O)(=O)c1ccc2c(c1)C(=Cc1cc(Cl)ccc1O)C(=O)N2 | −10.7
* CCOc1cccc(C=C2C(=O)Nc3ccc(CCCl)cc32)c1O | 3.4
* CCOC(=O)c1[nH]c(C=C2C(=O)Nc3c(Br)cc(Br)c(C)c32)c(C(=O)OC)c1C | 14.0
* Cc1c(Br)cc(Br)c2c1C(=Cc1cc(O)c(O)c(Br)c1)C(=O)N2 | 7.1
* CCN(CC)c1ccc(C=C2C(=O)Nc3ccc(I)cc32)c(O)c1 | 17.8

Give measured Biochem EGFR % Inhibition (P.167) for every item shown.
1. Cc1c(Br)ccc2c1C(=Cc1cccc(C(F)(F)F)c1)C(=O)N2
2. Cc1c(Br)cc(Br)c2c1C(=Cc1c(F)cccc1C(F)(F)F)C(=O)N2
3. O=C1Nc2ccc(CCCl)cc2C1=Cc1cccc(C(F)(F)F)c1

Given back:
[14.5, "−6.1", 16.7]

Give measured Biochem EGFR % Inhibition (P.167) for every item shown.
1. CNS(=O)(=O)c1ccc2c(c1)C(=Cc1cc(Br)cc(Br)c1O)C(=O)N2
2. Cc1c(Br)cc(Br)c2c1C(=Cc1cccc3ccccc13)C(=O)N2
3. O=C1Nc2ccc(S(=O)(=O)N3CCOCC3)cc2C1=Cc1cc(C(F)(F)F)cc(C(F)(F)F)c1
4. O=C1Nc2ccc(I)cc2C1=Cc1cc(F)cc(F)c1
5. CCc1ccc(C=C2C(=O)Nc3ccc(Br)c(C)c32)cc1
6. COc1cccc(OC)c1C=C1C(=O)Nc2c(Br)cc(Br)c(C)c21
7. Cc1ccccc1C=C1C(=O)Nc2c(Br)cc(Br)c(C)c21

Given back:
1. 51.1
2. −10.7
3. 13.0
4. 49.2
5. 4.6
6. 3.5
7. 3.6

Give measured Biochem EGFR % Inhibition (P.167) for every item shown.
1. CNS(=O)(=O)c1ccc2c(c1)C(=Cc1ccc(Br)s1)C(=O)N2
2. CNS(=O)(=O)c1ccc2c(c1)C(=Cc1ccccc1C(F)(F)F)C(=O)N2
3. Cc1ccccc1C=C1C(=O)Nc2ccc(S(=O)(=O)N3CCOCC3)cc21
4. Cc1c(Br)cc(Br)c2c1C(=Cc1cccc(C(F)(F)F)c1F)C(=O)N2
5. Cc1c(Br)cc(Br)c2c1C(=Cc1ccc(N3CCN(C=O)CC3)cc1)C(=O)N2
6. CCN(CC)c1ccc(C=C2C(=O)Nc3ccc(S(=O)(=O)NC)cc32)c(O)c1
7. Cc1cc(C=C2C(=O)Nc3c(Br)cc(Br)c(C)c32)sc1C

Given back:
1: 14.6; 2: −3.7; 3: 19.8; 4: −25.8; 5: −13.3; 6: −9.6; 7: −8.5

Give measured Biochem EGFR % Inhibition (P.167) for every item shown.
1. CSc1ccc(C=C2C(=O)Nc3c(Br)cc(Br)c(C)c32)s1
2. Cc1c(Br)cc(Br)c2c1C(=Cc1cccc([N+](=O)[O-])c1)C(=O)N2

Given back:
["−49.8", 14.6]

Give measured Biochem EGFR % Inhibition (P.167) for every item shown.
1. Cc1c(Br)ccc2c1C(=Cc1cccc(Cl)c1)C(=O)N2
2. Cc1c(Br)cc(Br)c2c1C(=Cc1coc3ccc([N+](=O)[O-])cc3c1=O)C(=O)N2
3. Cc1c(Br)cc(Br)c2c1C(=Cc1ccc(F)cc1C(F)(F)F)C(=O)N2
4. O=C1Nc2ccc(CCCl)cc2C1=Cc1ccc(Br)s1
5. O=C1Nc2c(Br)cc(Br)cc2C1=Cc1ccc(Cl)cc1Cl
6. Cc1c(O)ccc(C=C2C(=O)Nc3c(Br)cc(Br)c(C)c32)c1O

Given back:
1: 4.8; 2: −1.7; 3: −12.0; 4: 4.1; 5: 10.2; 6: 34.2

Give measured Biochem EGFR % Inhibition (P.167) for every item shown.
1. Cc1c(Br)cc(Br)c2c1C(=Cc1ccc(C(F)(F)F)cc1)C(=O)N2
2. COc1cc(OC)c(OC)cc1C=C1C(=O)Nc2c(Br)cc(Br)c(C)c21

Given back:
1: −16.3; 2: −3.4

Give measured Biochem EGFR % Inhibition (P.167) for every item shown.
1. COc1cccc(O)c1C=C1C(=O)Nc2c(Br)cc(Br)c(C)c21
2. Cc1c(Br)cc(Br)c2c1C(=C1C(=O)N(C)c3ccccc31)C(=O)N2
3. O=C1Nc2ccc(CCCl)cc2C1=Cc1cc(F)cc(F)c1
4. Cc1c(Br)cc(Br)c2c1C(=C1C(=O)Nc3ccc(F)cc31)C(=O)N2

Given back:
0.5
3.5
22.8
−16.6

Asked: Report Biochem EGFR % Inhibition (P.167) under test system EGFR (Homo sapiens, UniProt P00533) for CCc1ccc(C=C2C(=O)Nc3c(Br)cc(Br)c(C)c32)o1 .
Given back: −25.5

Data origin, for the record: patent US20020026053A1
